Hi! I'm sharing some pIC50 results obtained with Human DGAT2 (Homo sapiens (Human)).
Sequence (Q96PD7 whole entry): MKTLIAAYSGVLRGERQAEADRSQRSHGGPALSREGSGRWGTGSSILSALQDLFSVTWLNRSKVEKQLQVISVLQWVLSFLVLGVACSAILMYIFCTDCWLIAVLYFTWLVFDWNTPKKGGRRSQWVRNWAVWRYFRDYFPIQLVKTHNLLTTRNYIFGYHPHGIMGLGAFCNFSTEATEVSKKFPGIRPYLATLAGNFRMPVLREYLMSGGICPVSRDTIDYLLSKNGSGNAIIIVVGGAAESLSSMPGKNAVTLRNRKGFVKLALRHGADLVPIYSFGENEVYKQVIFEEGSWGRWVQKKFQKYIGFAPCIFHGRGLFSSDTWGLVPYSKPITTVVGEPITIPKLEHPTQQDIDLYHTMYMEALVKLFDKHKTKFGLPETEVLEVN
pIC50: −log10 of the molar value.
observed-property: pIC50

1. CC1(NC(=O)c2ccc3c(-c4cc(C#N)ccc4Cl)nn(-c4ccc(F)cc4)c3c2)CCS(=O)(=O)C1 (single isomer, unassigned); 8.08
2. O=C(NC(CO)(CO)CO)c1ccc2c(-c3ccccc3Cl)nn(-c3ccc(F)cc3)c2c1; 6.36
3. O=C(N[C@H](CO)Cc1ccccc1)c1ccc2c(-c3ccccc3Cl)nn(-c3ccc(F)cc3)c2c1; 6.87
4. CC(C)[C@@H](CO)NC(=O)c1ccc2c(-c3ccccc3Cl)nn(-c3ccc(F)cc3)c2c1; 8.10
5. CC1(NC(=O)c2ccc3c(-c4cccc(OC(F)F)c4)nn(-c4ccc(F)cc4)c3c2)CCS(=O)(=O)C1 (single isomer, unassigned); 8.80
6. O=C(NC1CC[S+]([O-])C1)c1ccc2c(-c3ccccc3Cl)nn(-c3ccc(F)cc3)c2c1 (single isomer, unassigned) [Example 58-B]; 6.22
